B1: Protein piccolo, residues 1058 to 1114; numbered along this chain, Q9Y6V0 (parent)
chain: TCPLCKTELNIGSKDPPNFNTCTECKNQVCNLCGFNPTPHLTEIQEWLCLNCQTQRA

Variants of: B1
protocol-summary: abundance fitness (aPCA) (normalised: wild type 0, dead -1); higher = more abundant; growth selection in yeast, the domain comes from the species named
cond: Homo sapiens
Please respond with reported abundance fitness for every item in the list.

Sample records with abundance fitness:
mutant_id=N18F experimental_readout="abundance fitness" endpoint_result=-0.199
mutant_id=T21D experimental_readout="abundance fitness" endpoint_result=-0.078
mutant_id=Q28W experimental_readout="abundance fitness" endpoint_result=-0.115
mutant_id=I11K experimental_readout="abundance fitness" endpoint_result=-0.104
mutant_id=Q28G experimental_readout="abundance fitness" endpoint_result=0.038
mutant_id=D15I experimental_readout="abundance fitness" endpoint_result=0.01

Lab note: next variant to report on.
Qu. Could you tell me which abundance fitness is on file for K26V ?
Ans. 0.065
